molecules and their reported EC50
- System: Vaccinia virus
- RUN_DESCRIPTION: Antiviral activity against Vaccinia virus Lederle infected in HELF cells assessed as inhibition of virus-induced cytopathogenicity
- Assay type: functional, organism-based
- PARTICULARS: Orthopoxvirus vaccinia
MEASURED_PARAMETER: EC50

molecule=CC[C@@]1(O)[C@@H](CO)O[C@@H](n2cc(Cl)c3c(N)ncnc32)[C@@H]1O system_under_test="Vaccinia virus" reading="0.73 µM"
molecule="Nc1nc2c(ncn2COCCO)c(=O)[nH]1 [ACYCLOVIR]" system_under_test="Vaccinia virus" reading="> 250 µM"
molecule="Nc1nc2c(ncn2COC(CO)CO)c(=O)[nH]1 [GANCICLOVIR]" system_under_test="Vaccinia virus" reading="> 100 µM"
molecule=C#C[C@@]1(O)[C@@H](CO)O[C@@H](n2ccc3c(Cl)ccnc32)[C@@H]1O system_under_test="Vaccinia virus" reading="> 100 µM"
molecule=C#C[C@@]1(O)[C@@H](CO)O[C@@H](n2cc(Cl)c3c(Cl)ccnc32)[C@@H]1O system_under_test="Vaccinia virus" reading="> 100 µM"
molecule=C#C[C@@]1(O)[C@@H](CO)O[C@@H](n2cc(I)c3c(Cl)ccnc32)[C@@H]1O system_under_test="Vaccinia virus" reading="> 100 µM"
molecule=C#C[C@@]1(O)[C@@H](CO)O[C@@H](n2cc(Br)c3c(Cl)ccnc32)[C@@H]1O system_under_test="Vaccinia virus" reading="> 100 µM"
